MEASURED TARGET: human PAI-1 (human, UniProt P05121 24-402)
Sequence (P05121 24-402 limits assumed, form in doubt): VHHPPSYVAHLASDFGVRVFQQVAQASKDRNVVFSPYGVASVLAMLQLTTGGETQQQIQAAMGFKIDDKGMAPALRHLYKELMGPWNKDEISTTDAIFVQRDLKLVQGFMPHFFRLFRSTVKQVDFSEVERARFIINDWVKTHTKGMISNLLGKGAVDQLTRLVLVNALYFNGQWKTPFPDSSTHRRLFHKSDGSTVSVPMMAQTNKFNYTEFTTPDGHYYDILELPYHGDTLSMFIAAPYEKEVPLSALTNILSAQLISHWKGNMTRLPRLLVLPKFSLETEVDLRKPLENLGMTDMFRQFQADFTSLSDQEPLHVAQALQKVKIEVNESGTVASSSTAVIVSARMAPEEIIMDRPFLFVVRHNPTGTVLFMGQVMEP
ASSAY PROTOCOL: cell-based or functional assay
# maps each entry to its uPA-PAI-1 complex ELISA Y50%

| BINDER | uPA-PAI-1 complex ELISA Y50% [%] |
| --- | --- |
| A44-hv11 (antibody, V domains shown, constant regions only as pictures; also called A44V11; A44v11) VH: QMTLKESGPTLVKPTQTLSLTCSVSGDSMTNGYWNWIRQFPGKALEYMGYITYSGSTYYNPSLKGRITITRDTSKNQYYLTLSSVTTVDTATYYCARWHYGSPYYFDYWGQGTTLTVSS VL: DIKMTQSPSSLSASVGDRVTITCKASQDINSYLSWLQQKPGKSPKTLIYRAQRSVEGVPSRFSGSGSGQDYSLTISSLQPEDLGIYYCLQYDEFPPTFGGGTKLEIK | 50.8 |
| A44-hv12 (antibody, V domains shown) VH: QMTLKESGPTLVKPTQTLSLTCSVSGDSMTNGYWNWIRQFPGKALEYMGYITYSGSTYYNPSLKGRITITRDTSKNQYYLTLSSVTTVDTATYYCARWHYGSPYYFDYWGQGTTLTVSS VL: DIKMTQSPSSLSASVGDRVTITCKASQDINSYLSWLQQKPGKSPKTLIYRAQRSVEGVPSRFSGSGSGQDYSLTISSLQPEDLATYYCLQYDEFPPTFGGGTKLEIK | 53.5 |
| A44-hv13 (antibody, V domains shown) VH: QMQLQESGPGLVKPSETLSLTCTVSGDSMTNGYWNWIRQPPGKGLEYMGYITYSGSTYYNPSLKSRITISRDTSKNQYSLKLSSVTAADTAVYYCARWHYGSPYYFDYWGQGTLVTVSS VL: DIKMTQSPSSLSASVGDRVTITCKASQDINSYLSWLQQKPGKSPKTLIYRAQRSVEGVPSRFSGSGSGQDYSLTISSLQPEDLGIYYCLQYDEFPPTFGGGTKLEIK | 52.8 |
| A44-hv14 (antibody, V domains shown) VH: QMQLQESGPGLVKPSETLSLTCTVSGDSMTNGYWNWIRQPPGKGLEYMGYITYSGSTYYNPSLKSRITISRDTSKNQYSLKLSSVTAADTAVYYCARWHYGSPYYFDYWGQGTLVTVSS VL: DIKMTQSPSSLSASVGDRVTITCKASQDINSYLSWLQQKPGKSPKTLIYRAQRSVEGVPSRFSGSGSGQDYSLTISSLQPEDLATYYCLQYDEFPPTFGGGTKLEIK | 52.5 |
